# System: ATS189
# PROTOCOL: qHTS profiling for inhibitors of Plasmodium falciparum proliferation (AID 504749); note: nearly all actives have a fitted effect of over 60% in size
# CONDITION SUMMARY: P. falciparum in erythrocytes, SYBR Green DNA, 72 h; series mostly up to 28.7 µM
Inconclusive results are not listed. Activity calls are given as the source filed them. Calls come from the whole dose curve; as a rule, active = well fitted inhibition curve with a large enough effect; inconclusive = small, poorly fitted or top-dose-only effect; inactive = flat fitted curve, though single readings scatter.
Return exactly one item of label 1 = active, label 0 = inactive

CC(C)(C)C(=O)C(Oc1ccc(Cl)cc1)n1ccnc1 (centres undefined) : label 1
CC(=O)Oc1ccc(C2(c3ccc(OC(C)=O)cc3)C(=O)Nc3ccccc32)cc1 : label 0
CC(C(O)c1ccc(O)cc1)N1CCC(Cc2ccccc2)CC1 (centres undefined) : label 1
COC(=O)C1=C(C)NC(C)=C(C(=O)OC)C1c1ccccc1[N+](=O)[O-] : label 0
Cc1cccc(Nc2cc(Cl)nc(SCC(=O)O)n2)c1C : label 0
CC(CN1c2ccccc2Sc2ccccc21)N(C)C (centres undefined) : label 0
CCN(CC)CCSC(=O)C(c1ccccc1)c1ccccc1 : label 0
Cc1cc(N)c2ccccc2[n+]1CCCCCCCCCC[n+]1c(C)cc(N)c2ccccc21 : label 1
O=c1cc[nH]c(=O)[nH]1 : label 0
Cc1c(Cl)cccc1Nc1ccccc1C(=O)O : label 0

Lookup: Outcome logged for `CCOc1ccc2ccccc2c1C(=O)N[C@@H]1C(=O)N2[C@@H]1SC(C)(C)[C@@H]2C(=O)O` in this assay:
Found: label 0

Lookup: Outcome logged for `CCCCc1ncc(/C=C(\Cc2cccs2)C(=O)O)n1Cc1ccc(C(=O)O)cc1` in this assay:
Found: label 0

Lookup: Outcome logged for `Oc1cccc(O)c1` in this assay:
Found: label 0

Lookup: Outcome logged for `O=C(O)c1ccccc1-c1ccc(C(F)(F)F)cc1` in this assay:
Found: label 0

Lookup: Outcome logged for OCC(O)CN1CCN(c2ccccc2)CC1 (centres undefined) in this assay:
Found: label 0

Lookup: Outcome logged for `Cc1cc(O)cc2c1O[C@](C)(CCC[C@H](C)CCC[C@H](C)CCCC(C)C)CC2` in this assay:
Found: label 0

Lookup: Outcome logged for `CCN(CC)CCNC(=O)c1c(C)[nH]c(/C=C2\C(=O)Nc3ccc(F)cc32)c1C` in this assay:
Found: label 1

Lookup: Outcome logged for `O=C1NS(=O)(=O)c2ccccc21` in this assay:
Found: label 0

Lookup: Outcome logged for `NCCNCCNCCNCCN` in this assay:
Found: label 0

====

# PROTOCOL: qHTS of pediatric cancer cell lines to identify multiple opportunities for drug repurposing: Primary screen for BT-12 cells (AID 1347101);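 note: plate controls were DMSO for no effect and bortezomib positive control for full effect; nearly all actives have a fitted effect of over 25% in size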
# CONDITION SUMMARY: BT-12 viability, CellTiter-Glo luminescence, 48 h; series mostly up to 57.3 µM
Inconclusive results are not listed. Active and inactive are the calls of the source. The call rests on the fitted dose curve; in most records, active means well fitted cell-killing curve with a large enough effect; inconclusive means small, poorly fitted or top-dose-only effect; inactive means flat fitted curve, though single readings scatter.
Return exactly one item of T for active, F for inactive

// below: answered compounds
CC(=O)OCC(=O)[C@@]1(O)CC[C@H]2[C@@H]3CCC4=CC(=O)CC[C@]4(C)[C@H]3C(=O)C[C@@]21C : F
Cc1cc(O)cc2c1O[C@](C)(CCC[C@H](C)CCC[C@H](C)CCCC(C)C)CC2 : F

Lookup: Outcome logged for `Cc1cc2nc3c(=O)[nH]c(=O)nc-3n(C[C@H](O)[C@H](O)[C@H](O)CO)c2cc1C` in this assay:
Found: F

Lookup: Outcome logged for `Cc1cccc(Nc2cc(Cl)nc(SCC(=O)O)n2)c1C` in this assay:
Found: F
